Test system: Fusarium graminearum
Assay type: cell-based
Settings: 50 μM; 7 days at 28° C.
Measurement kind: % Inhibition of DON/AcDON at 50 μM (%)

CC(C)n1cc(-c2ccncc2)c(-c2ccc(C(F)(F)F)s2)n1 [Example 401]	99
CCC(C)n1cc(-c2ccnc(NC(=O)[C@H](C)O)c2)c(-c2ccc(Cl)s2)n1 (stereo partly drawn) [Example 204]	95
CC(C)Cn1nc(-c2ccc(Cl)s2)c(-c2ccncc2)c1Br [Example 395]	99
COCC(=O)Nc1cc(-c2cn(C(C)C)nc2-c2ccc(Cl)s2)ccn1 [Example 244]	99
Cn1cc(-c2ccnc(Cl)c2)c(-c2ccc(Cl)s2)n1 [Example 313]	98
C=CC(C)n1cc(-c2ccncc2)c(-c2ccc(Br)s2)n1 (stereo not drawn) [Example 389]	99
Cn1cc(-c2ccnc(NC(=O)C3CCC3)c2)c(-c2ccc(Cl)s2)n1 [Example 275]	99
CCn1cc(-c2ccnc(N)c2)c(-c2ccc(Cl)s2)n1 [Example 307]	80
CCC(C)C(=O)Nc1cc(-c2cn(CC)nc2-c2ccc(Cl)s2)ccn1 (stereo not drawn) [Example 252]	99

* * *

Each entry below carries its recorded log p.
Assay: physchem
Details: pH 2.7
Counter-ions that a name gives are not always drawn.
Measurement kind: log p

CCCn1cc(I)c(-c2cc(C)cs2)n1	4.2
Cc1csc(-c2ccn(C(C)C)n2)c1	3.14
Clc1ccc(-c2n[nH]c(C3CC3)c2-c2ccncc2)s1	1.29
CCC(C)n1cc(I)c(-c2cccs2)n1 (stereo not drawn)	4.12
CCC(C)n1nccc1-c1cccs1 (stereo not drawn)	2.97
CCC(C)n1cc(-c2ccnc(C(=O)NC(C)C)c2)c(-c2ccc(Cl)s2)n1 (stereo not drawn)	4.82
C#CCNc1cc(-c2cn(CC(C)C)nc2-c2ccc(Cl)s2)ccn1	2.3
Ic1c[nH]nc1-c1cccs1	2.1
CCn1nc(-c2ccc(Cl)s2)c(Br)c1C	4.54
CC(C)n1cc(I)c(-c2cccs2)n1	3.71
FC(F)(F)c1ccc(-c2n[nH]cc2-c2ccncc2)s1 [hydrochloride]	1.34
CCn1ncc(I)c1-c1cc(Cl)cs1	3.76

* * *

Assay: physchem
Settings: pH 2.7
# log p binned as low end: < 2; middle: ≥ 2 and < 3; high end: ≥ 3

CC(C)n1ncc(I)c1-c1cccs1	high end
CCC(C)n1cc(-c2ccncc2)c(-c2cc(Cl)cs2)n1 (stereo not drawn)	low end
N#Cc1[nH]nc(-c2ccc(Cl)s2)c1-c1ccncc1	low end
CC(C)n1cc(-c2ccnc(S(C)(=O)=O)n2)c(-c2ccc(Cl)s2)n1	high end
CCC(C)n1nc(-c2ccc(Cl)s2)c(-c2ccncc2)c1F (stereo not drawn)	middle
CN(C)C=C(C(=O)c1ccc(Cl)s1)c1ccncc1	low end
O=C(Cc1ccncc1)c1ccc(Cl)s1	low end
CN(C)C=CC(=O)c1cc(Cl)cs1	low end
CCC(C)n1cc(I)c(-c2cc(Cl)cs2)n1 (stereo not drawn)	high end
Clc1ccc(-c2nn(C3CC3)cc2-c2ccncc2)s1	low end
CC(C)n1nccc1-c1cccs1	middle

* * *

System: Pyrenophora teres
Test: In vivo test on Pyrenophora teres (barley net blotch)
Conditions: dose of 500 ppm; barley plants; grading 12 days after contamination
Description: In Vivo Test on Pyrenophora teres (Barley Net Blotch) The active ingredients tested are prepared by homogenization in a mixture of acetone/Tween/DMSO, then diluted with water to obtain the desired active material concentration. Barley plants (Plaisant variety), sown on a 50/50 peat soil-pozzolana substrate in starter cups and grown at 12° C., are treated at the 1-leaf stage (10 cm tall) by spraying with the active ingredient prepared as described above. […]
Classify as follows. Reported protection greater than or equal to 90%: 1. Reported protection below: -1.

C#CCn1cc(-c2ccncc2)c(-c2ccc(Cl)s2)n1	-1
CC(C)n1cc(-c2ccnc(NC(=O)C3CC3)c2)c(-c2ccc(Cl)s2)n1	1
CCCc1c(-c2ccnc(NC(=O)CC)c2)c(-c2sccc2C)nn1C	-1

* * *

Conditions: pH 2.7
Measurement kind: logP value of the minor isomer

N#CCn1cc(-c2ccncc2)c(-c2sccc2Cl)n1 [Example 137]	(0.78
CCCc1c(-c2ccnc(NC(=O)CC)c2)c(-c2sccc2C)nn1C [Example 166]	2.39^[b])

* * *

Settings: pH 2.7
Marks after values point to notes of the source that are not given here.
Each entry below lists one item and its recorded log p value.
Measurement kind: log p

Cn1cc(-c2ccnc(NC(=O)CC3CC3)c2)c(-c2ccc(Cl)s2)n1 [Example 281]	2.54^[b]
CC(=O)N(C(C)=O)c1cc(-c2cnn(/C=C/F)c2-c2ccc(Cl)s2)ccn1 [Example 291]	3.39^[b]
N#CCCn1cc(-c2ccncc2)c(-c2cc(Cl)cs2)n1 [Example 126]	1.16^[b]
CCC(=O)Nc1cc(-c2c(-c3ccc(Cl)s3)nn(CC)c2C)ccn1 [Example 169]	2.71^[b]
CC(C)n1cc(-c2ccnc(Cl)c2)c(-c2ccc(Cl)s2)n1 [Example 315]	4.44^[b]
CC(C)Cn1cc(-c2ccncc2)c(-c2ccc(F)s2)n1 [Example 379]	1.82^[b]
CC(C)n1cc(-c2ccncc2)c(-c2sccc2Cl)n1 [Example 158]	1.38^[b]
FC(F)(F)Cn1cc(-c2ccncc2)c(-c2cc3ccsc3s2)n1 [Example 330]	1.91^[b]
CCC(C)C(=O)Nc1cc(-c2cn(C)nc2-c2ccc(Cl)s2)ccn1 (stereo not drawn) [Example 280]	2.71^[b]

* * *

Listed here: items and their measured log p.
Conditions: pH 2.7
Marks after values point to notes of the source that are not given here.
Measurement kind: log p

CC(C)C(C)n1ncc(-c2ccncc2)c1-c1ccc(Cl)s1 (centres unmarked)	2.1^[b]
CCn1cc(-c2ccnc(NC(=O)CC(C)C)c2)c(-c2ccc(Cl)s2)n1	3.15^[b]
CCn1cc(-c2ccnc(NC(=O)c3ccccc3)c2)c(-c2ccc(Cl)s2)n1	3.55^[b]
CCC(C)n1cc(-c2ccnc(NS(=O)(=O)N(C)C)c2)c(-c2ccc(Cl)s2)n1 (centres unmarked)	3.35^[b]
N#CCn1cc(-c2ccncc2)c(-c2cc3ccsc3s2)n1	1.48^[b]

* * *

Details: pH 2.7
Marks after values point to notes of the source that are not given here.
Measurement kind: log p

CC(C)Nc1nccc(-c2cn(C3CCCC3)nc2-c2ccc(Cl)s2)n1 [Example 154]	3.61^[b]
c1cc(-c2cn(C3CCCC3)nc2-c2cc3ccsc3s2)ccn1 [Example 332]	2.25^[b]
Clc1ccc(-c2nn(C3CCCCO3)cc2-c2ccncc2)s1 (stereo not drawn) [Example 45]	1.91^[b]
CCn1cc(-c2ccnc(NC(=O)CC3CC3)c2)c(-c2ccc(Cl)s2)n1 [Example 253]	2.94^[b]
CCC(C)n1cc(-c2ccncc2)c(-c2ccc(Br)s2)n1 (stereo not drawn) [Example 354]	2.15^[b]
CCn1cc(-c2ccnc(NC(=O)COC)c2)c(-c2ccc(Cl)s2)n1 [Example 261]	2.78^[b]
Cn1cc(-c2ccnc(N=C(c3ccccc3)c3ccccc3)c2)c(-c2ccc(Cl)s2)n1 [Example 309]	4.67^[b]
COc1ccc(Cn2nc(-c3ccc(Cl)s3)c(-c3ccncc3)c2[Si](C)(C)C)cc1 [Example 102]	4.84^[b]
CC(C)n1cc(-c2ccnc(NS(=O)(=O)N(C)C)c2)c(-c2ccc(Cl)s2)n1 [Example 218]	3^[b]

* * *

Items are presented alongside their recorded protection.
Test system: Pyrenophora teres
Assay: In vivo test on Pyrenophora teres (barley net blotch)
Settings: dose of 500 ppm; barley plants; grading 12 days after contamination
Measurement kind: protection (%)

CC(=O)Nc1cc(-c2cn(C(C)C)nc2-c2ccc(Cl)s2)ccn1	100
CC(C)n1cc(-c2ccnc(NC(=O)C(C)(C)C)c2)c(-c2ccc(Cl)s2)n1	90
CCn1cc(-c2ccnc(NC(=O)CC(C)C)c2)c(-c2ccc(Cl)s2)n1	80
CCn1cc(-c2ccnc(NC(=O)CC3CC3)c2)c(-c2ccc(Cl)s2)n1	100
CC(C)n1cc(-c2ccnc(NC3COC3)n2)c(-c2ccc(Cl)s2)n1	90
CCC(=O)Nc1nccc(-c2cn(C(C)CC)nc2-c2ccc(Cl)s2)n1 (centres unmarked)	95
CCn1cc(-c2ccnc(NC(C)=O)c2)c(-c2ccc(Cl)s2)n1	100
Clc1ccc(-c2nn(C3CCCCC3)cc2-c2ccncc2)s1	89
Cn1cc(-c2ccnc(NC(=O)C3CCC3)c2)c(-c2ccc(Cl)s2)n1	90
COCC(=O)Nc1cc(-c2cn(C)nc2-c2ccc(Cl)s2)ccn1	80
CCn1cc(-c2ccnc(NC(=O)c3cccs3)c2)c(-c2ccc(Cl)s2)n1	80

* * *

System: Pyrenophora teres
Test: In vivo test on Pyrenophora teres (barley net blotch)
Conditions: dose of 500 ppm; barley plants; grading 12 days after contamination
Reported protection values are given for each entry in this list.
Measurement kind: protection

ClC(Cl)=CCn1cc(-c2ccncc2)c(-c2ccc(Cl)s2)n1	70%
CC(C)Cn1cc(-c2ccncc2)c(-c2ccc(Br)s2)n1	70%
CCn1cc(-c2ccnc(NC(=O)C3CCC3)c2)c(-c2ccc(Cl)s2)n1	80%
CC(C)n1cc(-c2ccnc(NC3CC3)n2)c(-c2ccc(Cl)s2)n1	95%
CC(C)Nc1nccc(-c2cn(C(C)C)nc2-c2ccc(Cl)s2)n1	80%
CCC(C)n1cc(-c2ccnc(NC(=O)C(C)C)n2)c(-c2ccc(Cl)s2)n1 (stereo not drawn)	95%
CC(=O)Nc1cc(-c2cn(C)nc2-c2ccc(Cl)s2)ccn1	95%
CC(C)n1cc(-c2ccnc(NCC3CC3)n2)c(-c2ccc(Cl)s2)n1	70%
CCC(=O)Nc1cc(-c2cn(C(C)CC)nc2-c2cc(Cl)cs2)ccn1 (stereo not drawn)	100%
